The reported measurements were obtained from the supplement of paper PMC7125110.

B1: glmS ribozyme (parent)
chain: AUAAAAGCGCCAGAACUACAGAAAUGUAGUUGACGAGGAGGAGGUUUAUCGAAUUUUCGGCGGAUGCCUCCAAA

- Variants of: B1
- MEASUREMENT DESCRIPTION: self-cleavage kobs at 40 uM GlcN6P; higher = faster cleavage; RNA array
- CONDITION: with glucosamine-6-phosphate
Fewer inactive variants are shown than the library holds.
OBSERVATION TYPE: self-cleavage kobs at 40 uM GlcN6P

Examples with answers:
* G32A A48C | < 1e-05 s⁻¹
* G29C G32A | 3.72e-05 s⁻¹
* C11G C16G | < 1e-05 s⁻¹
* C8A U31G | < 1e-05 s⁻¹
* U30G A36U C50G C67U | 0.000201 s⁻¹

// C8A G29U C50U G51U C68G : self-cleavage kobs at 40 uM GlcN6P value = 6.11e-05 s⁻¹

self-cleavage kobs at 40 uM GlcN6P for A15C U55A is 0.000161 s⁻¹

self-cleavage kobs at 40 uM GlcN6P recorded for this variant, G40C U56A G62C , is < 1e-05 s⁻¹

For C10U G43U U57G the variant record lists self-cleavage kobs at 40 uM GlcN6P as < 1e-05 s⁻¹

Consider G35U C67G C71A . Its measured self-cleavage kobs at 40 uM GlcN6P is < 1e-05 s⁻¹
